Data provenance: paper PMC8285372

A collection of binders and their measured pIC50
- measured.target: soluble HLA-A*02:01 class I molecule (fluorescence polarization assay)
- test.protocol: fluorescence polarisation
To interpret pIC50, take it as minus log10 of a concentration measured in moles per litre.

| binder | result |
| --- | --- |
| KLVVVGARGV [KRAS G12R 5-14 peptide] | 4.68 |

Okay, now this binder:
// KLVVVGAGGV [KRAS 5-14 wild-type peptide] : pIC50 value = 4.96
